Measured values drawn from PubChem BioAssay (NCI) for this set.

Tested on: HT29 colon
PROCEDURE SUMMARY: NCI tumour cell line growth inhibition, 48 h
Answer each item with its documented TGI.

Input: Item under review: COC(=O)C(CC1=C(O)Nc2ccccc2N1)/C(=N/NC(N)=O)C(=O)Nc1ccccc1C (configuration not stated) . Reported TGI?
Output: > 100 µM

Input: Item under review: `CN(C)c1ccc(C(=NO)c2ccc(N(C)C)cc2)cc1` . Reported TGI?
Output: > 100 µM

Input: Item under review: `Cc1cc(S(=O)(=O)/N=C(\[N-]S(=O)(=O)c2cc(Cl)sc2Cl)[n+]2ccc(N(C)C)cc2)c(S)cc1Cl` . Reported TGI?
Output: > 100 µM

Input: Item under review: CC1(C)[C@@H]2C[C@H]1c1cnc(-c3ccccn3)cc1C2CCCCC[C@@H]1c2cc(-c3ccccn3)ncc2[C@@H]2C[C@H]1C2(C)C (some centres not stated) . Reported TGI?
Output: > 33.3 µM

Input: Item under review: `COc1cc(/C=C/C(=O)c2ccc(F)cc2)ccc1OCCCN1CCN(CC(=O)Nc2ccc(Cl)cc2C(=O)c2ccccc2Cl)CC1` . Reported TGI?
Output: 10.4 µM

Input: Item under review: `O=C1NOC(c2ccc(O)cc2)(c2ccc(O)cc2)c2ccccc21` . Reported TGI?
Output: > 100 µM

Input: Item under review: `CN(C)C(=O)c1ccc([N+](=O)[O-])cc1` . Reported TGI?
Output: > 100 µM
